Below, each entry is listed alongside its reported residual activity.
- SUBJECT OF TEST: Dual specificity mitogen-activated protein kinase kinase 1 (Homo sapiens) (UniProt Q02750)
- Sequence (Q02750 whole entry): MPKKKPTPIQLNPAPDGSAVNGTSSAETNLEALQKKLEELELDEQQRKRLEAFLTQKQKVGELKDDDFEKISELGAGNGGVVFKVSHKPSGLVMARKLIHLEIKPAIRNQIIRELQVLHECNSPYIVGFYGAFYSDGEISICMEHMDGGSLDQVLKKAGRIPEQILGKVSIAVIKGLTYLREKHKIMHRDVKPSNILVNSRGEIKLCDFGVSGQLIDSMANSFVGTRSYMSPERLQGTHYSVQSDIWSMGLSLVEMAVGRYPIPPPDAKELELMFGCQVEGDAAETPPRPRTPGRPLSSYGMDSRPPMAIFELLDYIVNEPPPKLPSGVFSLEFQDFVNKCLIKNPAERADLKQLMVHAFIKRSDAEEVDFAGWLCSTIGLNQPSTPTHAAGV
- TEST SETTINGS: at 10 µM
- Description: Millipore: Percentage of residual kinase activity of MAP2K1 at 10uM relative to control. Control inhibitor: Phosphoric acid* at 0.3uM. Buffer: 50 mM Tris pH 7.5, 0.2 mM EGTA, 0.1% ?-mercaptoethanol, 0.01% Brij-35
ENDPOINT: residual activity

# COMPOUND, SUBJECT OF TEST, RESULT
records = [
    ("CC(C)n1cnc2/c(=N/c3cccc(Cl)c3)nc(NCCO)[nH]c21", "Dual specificity mitogen-activated protein kinase kinase 1 (Homo sapiens) (UniProt Q02750)", "91%"),
    ("Cn1cc(/C=C2\\C(=O)Nc3ccc(S(N)(=O)=O)cc32)c2ccccc21", "Dual specificity mitogen-activated protein kinase kinase 1 (Homo sapiens) (UniProt Q02750)", "19%"),
    ("Oc1ccc(Nc2nc(-c3ccc(Cl)cc3)cs2)cc1", "Dual specificity mitogen-activated protein kinase kinase 1 (Homo sapiens) (UniProt Q02750)", "112%"),
    ("N#Cc1cnc2cnc(NCc3cccnc3)cc2c1Nc1ccc(F)c(Cl)c1", "Dual specificity mitogen-activated protein kinase kinase 1 (Homo sapiens) (UniProt Q02750)", "91%"),
    ("CC#CC(=O)Nc1cc2c(Nc3ccc(F)c(Cl)c3)ncnc2cn1", "Dual specificity mitogen-activated protein kinase kinase 1 (Homo sapiens) (UniProt Q02750)", "103%"),
    ("CCC(=O)Nc1ccc2ncnc(Nc3cccc(Br)c3)c2c1", "Dual specificity mitogen-activated protein kinase kinase 1 (Homo sapiens) (UniProt Q02750)", "92%"),
    ("Cc1nc(-c2ccccc2)c(-c2ccncc2)o1", "Dual specificity mitogen-activated protein kinase kinase 1 (Homo sapiens) (UniProt Q02750)", "106%"),
    ("O=C(O)c1ccc2c3c1cccc3c(=O)n1c3ccccc3nc21", "Dual specificity mitogen-activated protein kinase kinase 1 (Homo sapiens) (UniProt Q02750)", "97%"),
    ("c1ccc2c(-c3ccncc3)c[nH]c2c1", "Dual specificity mitogen-activated protein kinase kinase 1 (Homo sapiens) (UniProt Q02750)", "75%"),
    ("Nc1ccc2ncnc(NCCc3ccc(Oc4ccccc4)cc3)c2c1", "Dual specificity mitogen-activated protein kinase kinase 1 (Homo sapiens) (UniProt Q02750)", "101%"),
    ("Ic1cccc(CSc2nnc(-c3ccncc3)o2)c1", "Dual specificity mitogen-activated protein kinase kinase 1 (Homo sapiens) (UniProt Q02750)", "77%"),
    ("Cn1nc2c3c(cccc31)C(=O)c1ccccc1-2", "Dual specificity mitogen-activated protein kinase kinase 1 (Homo sapiens) (UniProt Q02750)", "91%"),
    ("CN(C)CCCn1cc(C2=C(c3c[nH]c4ccccc34)C(=O)NC2=O)c2ccccc21", "Dual specificity mitogen-activated protein kinase kinase 1 (Homo sapiens) (UniProt Q02750)", "52%"),
    ("CO[C@@H]1[C@H](N(C)C(=O)c2ccccc2)C[C@H]2O[C@]1(C)n1c3ccccc3c3c4c(c5c6ccccc6n2c5c31)C(=O)NC4", "Dual specificity mitogen-activated protein kinase kinase 1 (Homo sapiens) (UniProt Q02750)", "56%"),
    ("O=C(Nc1cccc(Nc2cc(Nc3cccc(C(F)(F)F)c3)ncn2)c1)C1CC1", "Dual specificity mitogen-activated protein kinase kinase 1 (Homo sapiens) (UniProt Q02750)", "88%"),
    ("O=C1Nc2ccccc2/C1=C1/Nc2ccccc2/C1=N\\OCCC(O)CO (stereo not drawn)", "Dual specificity mitogen-activated protein kinase kinase 1 (Homo sapiens) (UniProt Q02750)", "21%"),
    ("CC[n+]1c(/C=C/N(C)c2ccccc2)n(-c2ccccc2)c2ccc(-c3nc4ccccc4s3)cc21", "Dual specificity mitogen-activated protein kinase kinase 1 (Homo sapiens) (UniProt Q02750)", "95%"),
    ("O=C(Nc1cccc(Nc2nccc(Nc3cccc(C(F)(F)F)c3)n2)c1)C1CC1", "Dual specificity mitogen-activated protein kinase kinase 1 (Homo sapiens) (UniProt Q02750)", "77%"),
    ("O=C1NC(=O)/C(=C/c2ccc3c(c2)OC(F)(F)O3)S1", "Dual specificity mitogen-activated protein kinase kinase 1 (Homo sapiens) (UniProt Q02750)", "109%"),
    ("O=c1c2ccccc2[nH]c(=S)n1CCN1CCC(=C(c2ccc(F)cc2)c2ccc(F)cc2)CC1", "Dual specificity mitogen-activated protein kinase kinase 1 (Homo sapiens) (UniProt Q02750)", "92%"),
    ("O=C1NC(=O)c2cc(Nc3ccc(F)cc3)c(Nc3ccc(F)cc3)cc21", "Dual specificity mitogen-activated protein kinase kinase 1 (Homo sapiens) (UniProt Q02750)", "122%"),
    ("N#C/C(=C(\\N)Sc1ccc(N)cc1)c1ccccc1C(F)(F)F", "Dual specificity mitogen-activated protein kinase kinase 1 (Homo sapiens) (UniProt Q02750)", "101%"),
    ("COc1ccc(CNc2nc(N(CCO)CCO)nc3c2ncn3C(C)C)cc1", "Dual specificity mitogen-activated protein kinase kinase 1 (Homo sapiens) (UniProt Q02750)", "120%"),
]
